The entries below come with measured collision cross section (N2) values attached.
conditions: [M+NH4]+; instrument: DT; single field
Entry rule: numbers only, all in Å².

For CCCCC/C=C\C/C=C\C/C=C\CCCCCCCCC(=O)OC[C@@H](COC(=O)CCCCCCCCCCCCCCCCC)OC(=O)CCCCCCCCC/C=C\C/C=C\CCCCC [TG(60:5)] , write its collision cross section (N2).
344.42

Report collision cross section (N2) for CC/C=C\C/C=C\C/C=C\C/C=C\C/C=C\CCCCCC(=O)OC[C@@H](COC(=O)CCCCCCCCCCCCCCC)OC(=O)CCC/C=C\C/C=C\C/C=C\C/C=C\C/C=C\CC [TG(58:10)]
327.44

Hello, please tell me recorded collision cross section (N2) for this one: CCCCC/C=C\C/C=C\C/C=C\C/C=C\CCCC(=O)O[C@@H](COC(=O)CCCCCCCCCCC/C=C\C/C=C\CCCCC)COC(=O)CCCCCCCCCCCCCCCC [TG(59:6)]
339.13

Please look at this compound and report its collision cross section (N2): CCCC/C=C\CCCCCCCC(=O)OC[C@H](CO)OC(=O)CCCCC/C=C\C/C=C\C/C=C\C/C=C\CCCCC [DG(36:5)]
254.91

Give recorded collision cross section (N2). CCCCC/C=C\C/C=C\CCCCCCCC(=O)O[C@@H](CO)COC(=O)CCCCCCCCCCCC [DG(31:2)]
249.72
